Biological target: Human recombinant sEH (Homo sapiens)
Construct: made in house
Sequence (P34913 whole entry): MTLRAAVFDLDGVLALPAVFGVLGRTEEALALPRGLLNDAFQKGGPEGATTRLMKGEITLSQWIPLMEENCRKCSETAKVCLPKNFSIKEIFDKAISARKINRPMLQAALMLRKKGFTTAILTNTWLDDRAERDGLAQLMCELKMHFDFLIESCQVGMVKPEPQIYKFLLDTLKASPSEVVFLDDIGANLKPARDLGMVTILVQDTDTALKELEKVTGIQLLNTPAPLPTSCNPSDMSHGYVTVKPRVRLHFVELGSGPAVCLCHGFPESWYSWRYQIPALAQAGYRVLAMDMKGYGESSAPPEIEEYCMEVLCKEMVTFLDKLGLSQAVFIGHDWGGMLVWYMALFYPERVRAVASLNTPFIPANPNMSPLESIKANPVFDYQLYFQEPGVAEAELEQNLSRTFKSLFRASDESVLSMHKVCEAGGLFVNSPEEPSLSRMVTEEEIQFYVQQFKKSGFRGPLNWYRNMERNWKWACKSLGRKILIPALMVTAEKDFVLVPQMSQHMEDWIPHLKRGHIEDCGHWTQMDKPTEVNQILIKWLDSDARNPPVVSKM
Test: sEH activity assay (PHOME fluorescence, cell-free)
Assay type: biochemical
Conditions: read-out: sEH IC50 ± SEM; human recombinant sEH, cell-free
outcome.measure: IC50 (µM)
All answers are understood in µM, so give the number only.

QUERY: IC50 for `Cc1cc(OCc2nc3ccccc3[nH]2)ccc1NC(=O)Nc1ccc(Cl)c(Cl)c1` ?
RESULT: 0.0569

---

Target: FLAP (5-LOX product formation) (Homo sapiens)
Construct: Human neutrophils were isolated from buffy coats of healthy adult fasted donors; endogenous in cells; host or cells: primary human neutrophils from buffy coats
Sequence (P20292 whole entry): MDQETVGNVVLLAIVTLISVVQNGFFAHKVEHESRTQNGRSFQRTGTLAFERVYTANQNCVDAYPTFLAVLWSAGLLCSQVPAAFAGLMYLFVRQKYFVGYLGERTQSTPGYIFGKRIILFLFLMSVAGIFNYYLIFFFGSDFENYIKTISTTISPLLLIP
Assay: FLAP-dependent 5-LOX product formation in human neutrophils
Format: cell-based
Conditions: human neutrophils, A23187 stimulated; read-out: FLAP (5-LOX product formation) IC50 ± SEM
pIC50: −log10 of the molar value.
Note to self: values exactly at 6 are satisfied. So pIC50 at or above 6 is satisfied, below is not satisfied.

Answered examples (3):
[[record]]
molecule = "CC(C)(C)OC(=O)n1c(COc2ccc(NC(=S)Nc3ccc(Cl)c(Cl)c3)cc2)nc2ccccc21"
class_name = "not satisfied"

[[record]]
molecule = "O=C(Nc1ccc(OCc2nc3ccccc3[nH]2)cc1)Nc1ccc(Cl)c(Cl)c1"
class_name = "satisfied"

[[record]]
molecule = "Cc1cc(NC(=O)Nc2ccc(Cl)c(Cl)c2)ccc1OCc1nc2ccccc2n1C(=O)OC(C)(C)C"
class_name = "not satisfied"


Then there is this compound:
QUERY: # bool: pIC50 of `Cc1cc(NC(=O)Nc2ccc(Cl)c(Cl)c2)ccc1OCc1nc2ccccc2[nH]1` >= 6
RESULT: satisfied

---

Reported melting point by item:

Below are worked cases with known answers.
[[record]]
molecule = "Cc1cc(OCc2nc3ccccc3n2C(=O)OC(C)(C)C)ccc1NC(=O)Nc1ccc(Cl)c(Cl)c1 [Compound 5a]"
obs_value = "261 to 263 °C"

[[record]]
molecule = "Cc1cc(NC(=O)Nc2ccc(Cl)c(Cl)c2)ccc1OCc1nc2ccccc2[nH]1 [Compound 6c]"
obs_value = "228 to 230 °C"

[[record]]
molecule = "Cc1cc(OCc2nc3ccccc3[nH]2)ccc1NC(=O)Nc1ccc(Cl)c(Cl)c1 [Compound 6a]"
obs_value = "245 to 246 °C"

[[record]]
molecule = "CC(C)(C)OC(=O)n1c(COc2ccc(NC(=S)Nc3ccc(Cl)c(Cl)c3)cc2)nc2ccccc21 [Compound 5e]"
obs_value = "165 to 167 °C"

[[record]]
molecule = "Cc1cc(OCc2nc3ccccc3[nH]2)ccc1NC(=S)Nc1ccc(Cl)c(Cl)c1 [Compound 6d]"
obs_value = "122 to 124 °C"


QUERY: melting point for Cc1cc(OCc2nc3ccccc3n2C(=O)OC(C)(C)C)ccc1NC(=S)Nc1ccc(Cl)c(Cl)c1 [Compound 5d] ?
RESULT: 172 °C

QUERY: melting point for Cc1cc(NC(=S)Nc2ccc(Cl)c(Cl)c2)ccc1OCc1nc2ccccc2[nH]1 [Compound 6f] ?
RESULT: 167 to 168 °C

QUERY: melting point for Cc1cc(NC(=O)Nc2ccc(Cl)c(Cl)c2)ccc1OCc1nc2ccccc2n1C(=O)OC(C)(C)C [Compound 5c] ?
RESULT: 145 to 146 °C

QUERY: melting point for Cc1cc(NC(=S)Nc2ccc(Cl)c(Cl)c2)ccc1OCc1nc2ccccc2n1C(=O)OC(C)(C)C [Compound 5f] ?
RESULT: 169 to 172 °C

QUERY: melting point for O=C(Nc1ccc(OCc2nc3ccccc3[nH]2)cc1)Nc1ccc(Cl)c(Cl)c1 [Compound 6b] ?
RESULT: 272 °C

QUERY: melting point for S=C(Nc1ccc(OCc2nc3ccccc3[nH]2)cc1)Nc1ccc(Cl)c(Cl)c1 [Compound 6e] ?
RESULT: 160 to 162 °C

QUERY: melting point for CC(C)(C)OC(=O)n1c(COc2ccc(NC(=O)Nc3ccc(Cl)c(Cl)c3)cc2)nc2ccccc21 [Compound 5b] ?
RESULT: 262 to 264 °C

Origin of values: paper PMC9518245
